Entries and their cell viability
Tested on: Caco-2
ASSAY_SUMMARY: cell viability relative to DMSO; higher = less toxic
SETUP_CONDITIONS: 72 h; 1 nM

>  <COMPOUND>
CCCCNc1c(C(=O)OCC)c(C)nc2c1cnn2CC [tracazolate]

>  <VALUE_UNIT>
%

>  <cell viability>
93.3

$$$$
>  <COMPOUND>
COc1ccc(CC(C)NCC(O)c2ccc(O)c(NC=O)c2)cc1 (stereo not drawn) [formoterol]

>  <VALUE_UNIT>
%

>  <cell viability>
96

$$$$
>  <COMPOUND>
CCOC(=O)CSCCC1NC(C(=O)O)CS1 (stereo not drawn) [letosteine]

>  <VALUE_UNIT>
%

>  <cell viability>
90.8

$$$$
>  <COMPOUND>
CC(C)=CCC/C(C)=C/CC/C(C)=C/CSc1ccccc1C(N)=O [farnesyl-thiosalicylic-acid-amide]

>  <VALUE_UNIT>
%

>  <cell viability>
104

$$$$
>  <COMPOUND>
CO[C@H]1C[C@H](O[C@H]2CC[C@@]3(C)[C@H](CC[C@@H]4[C@@H]3CC[C@]3(C)[C@@H](C5=CC(=O)OC5)[C@@H](OC(C)=O)C[C@]43O)C2)O[C@@H](C)[C@@H]1O [oleandrin]

>  <VALUE_UNIT>
%

>  <cell viability>
98.1

$$$$
>  <COMPOUND>
NC(=O)N1CCC(CC(=O)N2CCC([C@H]3c4ncc(Br)cc4CCc4cc(Cl)cc(Br)c43)CC2)CC1 [lonafarnib]

>  <VALUE_UNIT>
%

>  <cell viability>
91.3

$$$$
>  <COMPOUND>
CN(C)CCc1ccc(O)cc1 [hordenine]

>  <VALUE_UNIT>
%

>  <cell viability>
96.2

$$$$
>  <COMPOUND>
CC(=O)OC/C=C(C)/C=C/C=C(C)/C=C/C1=C(C)CCCC1(C)C [retinyl-acetate]

>  <VALUE_UNIT>
%

>  <cell viability>
112

$$$$
>  <COMPOUND>
O=C1N[C@@H]2[C@@H](O)[C@@H](O)[C@H](O)[C@@H](CO)N2C1=O [kifunensine]

>  <VALUE_UNIT>
%

>  <cell viability>
98.5

$$$$
>  <COMPOUND>
CC(C)(C)NCC(O)COc1cccc2c1CCC(=O)N2 (stereo not drawn) [carteolol]

>  <VALUE_UNIT>
%

>  <cell viability>
100

$$$$
>  <COMPOUND>
NCCc1c[nH]c2ccc(C(N)=O)cc12 [5-carboxamidotryptamine]

>  <VALUE_UNIT>
%

>  <cell viability>
97.8

$$$$
>  <COMPOUND>
O=c1c2ccccc2oc2ccccc12 [xanthone]

>  <VALUE_UNIT>
%

>  <cell viability>
102

$$$$
>  <COMPOUND>
CCCC[C@H]1OC(=O)c2ccccc21 [butylphthalide]

>  <VALUE_UNIT>
%

>  <cell viability>
111

$$$$

====

Test system: Caco-2
ASSAY_SUMMARY: cell viability relative to DMSO; higher = less toxic
SETUP_CONDITIONS: 72 h; 10 nM

>  <MOLECULE>
CN(C)CCc1ccc(O)cc1 [hordenine]

>  <cell viability, %>
102

$$$$
>  <MOLECULE>
COc1ccc(C2(CNC(=O)c3ccc(NC(=O)c4ccco4)cc3)CCOCC2)cc1 [JW-55]

>  <cell viability, %>
91.6

$$$$
>  <MOLECULE>
Fc1ccc2nc(CCC#Cc3ccccn3)cn2c1 [dipraglurant]

>  <cell viability, %>
94.2

$$$$
>  <MOLECULE>
CO[C@H]1C[C@H](O[C@H]2CC[C@@]3(C)[C@H](CC[C@@H]4[C@@H]3CC[C@]3(C)[C@@H](C5=CC(=O)OC5)[C@@H](OC(C)=O)C[C@]43O)C2)O[C@@H](C)[C@@H]1O [oleandrin]

>  <cell viability, %>
79.5

$$$$
>  <MOLECULE>
N=C1N[C@H]2[C@H](CS[C@H]2CCCCC(=O)O)N1 [2-iminobiotin]

>  <cell viability, %>
105

$$$$

Values compiled from the supplement of paper PMC13380429.
